- System: A549 NSCLC
- PROTOCOL_DESCRIPTION: NCI tumour cell line growth inhibition, 48 h
ATTRIBUTE_MEASURED: TGI

COMPOUND: C[C@H]1C(=O)O[C@@H]1[C@H]1COC(C)(C)O1
TGI: > 100 µM

COMPOUND: COC(=O)NC1(NC(=O)OC)NC(=O)c2cc(OC)c(OC)cc2N1
TGI: > 100 µM

For reference, reported TGI for Cc1ccc2c(c1)C(C)Cc1c(ncnc1-n1cnc3cc(C)ccc31)N2C (stereo unspecified) stands at 13.4 µM

For reference, reported TGI for CCN1CCN(c2nc3ccccc3nc2C(=O)c2ccc(OC)cc2)CC1 stands at > 100 µM

For reference, reported TGI for CN(C)c1ncnc2c1Cc1ccccc1C(=O)N2C stands at > 100 µM

For reference, reported TGI for CCSC(SCC)c1cc2c(cc1Br)OCO2 stands at > 100 µM

---

Each record here notes measured TGI.
- Tested on: NCI/ADR-RES ovarian
- PROTOCOL_DESCRIPTION: NCI tumour cell line growth inhibition, 48 h
Give your result in µM as a bare value.

Some entries whose results are on file:
MOLECULE: CCOC(CCCNCCCn1c2c(c3cc(OC)c(OC)cc3c1=O)C(=O)c1cc3c(cc1-2)OCO3)OCC
UNITS_OF_MEASURE: µM
RESULT: 13.7

MOLECULE: O=C(CCCCCCCn1cc(-c2cccnc2)nn1)Nc1ccccc1-c1ccccc1
UNITS_OF_MEASURE: µM
RESULT: 27.4

For reference, reported TGI for Cc1cc(C(=O)Nc2nc3cccc(Cl)c3n2[C@@H]2CCCCN(C(=O)/C=C/CN(C)C)C2)ccn1 stands at 49

For reference, reported TGI for Cc1ccc2c(c1)C(C)Cc1c(ncnc1-n1cnc3cc(C)ccc31)N2C (centres undefined) stands at 54.3

---

- Tested on: SF-295 CNS
- PROTOCOL_DESCRIPTION: NCI tumour cell line growth inhibition, 48 h; in the data active = GI50 below about 0.43 µM; inactive = the rest
Answer with one of the outcomes given here: label 1 for active, label 0 for inactive

MOLECULE: COC(=O)[C@H]1C(=O)[C@@]2(C)[C@H]([C@H](OC(=O)c3ccccc3)[C@]3(O)C[C@H](OC(=O)[C@H](O)[C@@H](NC(=O)c4ccc(F)cc4)c4ccccc4)C(C)=C1C3(C)C)[C@]1(OC(C)=O)CO[C@@H]1C[C@@H]2O
LABEL: label 1

Recorded call for COC(=O)C(Cc1cnc[nH]1)NC(=O)CNC(=O)CCCn1c(=O)c2c3ccccc3n(C)c2n2nnc(-c3ccccc3)c12 (centres undefined) ?
label 0

Recorded call for O=C1/C(=C\c2ccc(F)cc2)CN(C(=O)c2ccc([N+](=O)[O-])cc2)C/C1=C\c1ccc(F)cc1 ?
label 0

Recorded call for NC(=O)C1c2ccccc2C=Cc2ccccc21 ?
label 0

Recorded call for CN[C@@H](C)C(=O)N[C@H]1CN(C(=O)CC(C)C)CC[C@H]2CC[C@@H](C(=O)NC(c3ccccc3)c3ccccc3)N2C1=O ?
label 0

Recorded call for Cc1cc(C(=O)Nc2nc3cccc(Cl)c3n2[C@@H]2CCCCN(C(=O)/C=C/CN(C)C)C2)ccn1 ?
label 0

Recorded call for N=C(N)/N=C(\N)c1c(-c2cc(O)ccc2O)nc2sccn12 ?
label 0

Recorded call for COc1ccccc1-c1cc(/C=C2\C(=O)Nc3ncc(Br)cc32)cc(Br)c1O ?
label 0

Recorded call for COc1ccc(CCN2CCCN3C2=Nc2ccccc2S3(=O)=O)cc1 ?
label 1

---

- Tested on: EKVX NSCLC
- PROTOCOL_DESCRIPTION: NCI tumour cell line growth inhibition, 48 h
Where a SMILES comes first, the peptide text is derived from it. Bridges are numbered along the chain shown (N, C = ends). [ ]: non-standard residue; d: D form. The star is where a group is joined. PhAc = O=C(Cc1ccccc1)*
Each record here notes measured TGI.

Some entries whose results are on file:
COMPOUND: O=C(Cc1ccccc1)N[C@@H]1COC(=O)[C@@H]2CCCN2C(=O)[C@@H]2CCCN2C1=O (PhAc-[dS]-Pro-Pro; ester 1-C)
TGI: > 100 µM
//
COMPOUND: O=c1[nH]c(=O)n(C2OC(CO)C(O)C2O)c2ncc(-c3ccc(-c4ccccc4)cc3)nc12 (stereo not given)
TGI: > 20 µM
//
COMPOUND: COc1ccc(CCN2CCCN3C2=Nc2ccccc2S3(=O)=O)cc1
TGI: > 100 µM
//
COMPOUND: Fc1ccc(-c2nn3c(CNc4ccccc4)nnc3s2)cc1
TGI: > 100 µM

Form field, TGI with EKVX NSCLC, item NC(=NCCCC1(c2ccccc2)CCCC1)Nc1ccc(Cl)cc1 : 3.57 µM

Form field, TGI with EKVX NSCLC, item O=C1Oc2ccccc2C(=O)/C1=C/N1C(=O)/C(=C/c2ccc3c(c2)OCO3)SC1=S : > 100 µM

Form field, TGI with EKVX NSCLC, item NC(=O)c1ccc(NS(=O)(=O)c2ccc(N)cc2)nc1 : > 100 µM

Form field, TGI with EKVX NSCLC, item CNC1C(O)C(OC2C(N)CC(N)C(OC3OC(CN)=CCC3N)C2O)OCC1(C)O (stereo not given) : > 100 µM

Form field, TGI with EKVX NSCLC, item CCSC(SCC)c1cc2c(cc1Br)OCO2 : > 100 µM

Form field, TGI with EKVX NSCLC, item O=C1OC2C(O)COC2(O)C1(O)C(C[N+](=O)[O-])c1ccc(Cl)cc1 (stereo not given) : 51.4 µM

---

- System: UACC-62 melanoma
- PROTOCOL_DESCRIPTION: NCI tumour cell line growth inhibition, 48 h
ATTRIBUTE_MEASURED: TGI

MOLECULE: CN(C)CCCNC(=O)c1cc(NC(=O)c2cc(NS(=O)(=O)c3ccc4c(c3)C(=O)c3ccccc3C4=O)cn2C)cn1C
TGI: > 100 µM
--
MOLECULE: COc1ccc2c(c1)CCN=C2Cc1ccccc1CCCl
TGI: 52.7 µM
--
MOLECULE: COc1c2c3ccccc3nc-2n(C)c2ccccc12
TGI: 33 µM

For reference, reported TGI for Cc1nc2ccccn2c1NC(=O)NNC(=S)Nc1ccc(Br)cc1 stands at > 100 µM

For reference, reported TGI for COc1cc(Br)c(CC2(C#N)c3ccccc3C3C(N2C(=O)c2ccccc2)C3(Cl)Cl)cc1OC (stereo unspecified) stands at > 65.5 µM

For reference, reported TGI for Cc1cc(S(=O)(=O)NC(=C(C#N)C#N)[n+]2ccc(N(C)C)cc2)c([S-])cc1Cl stands at > 100 µM

For reference, reported TGI for Cc1c(C#N)c(N)[nH]c(=S)c1C#N stands at > 100 µM

For reference, reported TGI for CN1CCC(CNc2ccc3ncc(-c4cccc(OC(F)(F)F)c4)n3n2)CC1 stands at 3.66 µM

For reference, reported TGI for CCOC(=O)C[C@@H](C)[C@]1(C(=O)OC)CCCC1=O stands at > 100 µM

For reference, reported TGI for Cc1c(-c2ccccc2)c(=O)oc2ccc(Cl)cc12 stands at > 100 µM

For reference, reported TGI for C#CCSc1n[nH]c(-c2ccco2)n1 stands at > 100 µM

For reference, reported TGI for COc1cccc(Cn2c(-c3nonc3N)nc3ccccc32)c1 stands at > 100 µM

For reference, reported TGI for C=C1[C@H](OC(=O)C(C)C)[C@@H](OC(C)=O)[C@@H](OC(C)=O)C(C)(C)[C@@H]2O[C@H]2[C@@H](C)C(=O)[C@@]2(OC(C)=O)C[C@@](C)(OC(C)=O)[C@H](OC(C)=O)[C@@H]2[C@H]1OC(C)=O stands at > 100 µM

For reference, reported TGI for COc1ccc(-c2nsc3c2NC(=O)CC3c2ccc(F)cc2)cc1 (stereo unspecified) stands at > 100 µM

For reference, reported TGI for CC(=O)NC(CCCCN(Cc1ccccc1)C(=O)NCCCl)C(=O)NCc1ccccc1 (stereo unspecified) stands at > 100 µM

For reference, reported TGI for NC(=O)C1c2ccccc2C=Cc2ccccc21 stands at > 100 µM

For reference, reported TGI for Cc1ccc2c(c1)C(C)Cc1c(ncnc1-n1cnc3cc(C)ccc31)N2C (stereo unspecified) stands at 16.7 µM

For reference, reported TGI for CCOC(=O)[C@@H]1OC(c2ccccc2)O[C@H]1C(=O)OCC stands at > 100 µM

For reference, reported TGI for NC1OC(COC(=O)c2ccccc2)C(O)C(OC(=O)c2ccccc2)C1OC(=O)c1ccccc1 (stereo unspecified) stands at 29.4 µM

For reference, reported TGI for CC1=C(C(=O)Nc2ccccc2)C(c2ccc([N+](=O)[O-])cc2)C(C(=O)Nc2ccccc2)=C(C)N1 stands at 27.9 µM

For reference, reported TGI for CCSC(SCC)c1cc2c(cc1Br)OCO2 stands at > 100 µM

For reference, reported TGI for Cc1ccc(-c2cc(-c3ccc(Cl)cc3)nc(/N=C3\C(=O)N(CN4CCOCC4)c4ccccc43)n2)cc1 stands at 41.4 µM
